Overview of recorded viability at 72 h, 250 ug/ml for various compounds
assay-summary: Cytotoxicity against human HepG2 cells assessed as cell viability at 250 ug/ml incubated for 72 hrs by CCK8 assay relative to control
Assay type: toxicity, cell-based
test-settings: at 250 µg/mL, read-out: Activity
property-label: viability at 72 h, 250 ug/ml (%)

• CCc1cccc(N2CC(Cc3n[nH]c(=O)o3)OC2=O)c1 (stereo not drawn) = 93.1
• Cc1cc(C)cc(N2CC(Cc3n[nH]c(=O)o3)OC2=O)c1 (stereo not drawn) = 90.8
• O=C1OC(Cc2n[nH]c(=O)o2)CN1c1ccccc1OCc1ccccc1 (stereo not drawn) = 91.5
• O=C1OC(Cc2n[nH]c(=O)o2)CN1c1cccc(OCc2ccccc2)c1 (stereo not drawn) = 94.2
• O=c1[nH]nc(C(O)CNc2cccc(OCc3ccccc3)c2)[nH]1 (stereo not drawn) = 90.3
• O=C1OC(c2n[nH]c(=O)o2)CN1c1cccc(OCc2ccccc2)c1 (stereo not drawn) = 92.4
• O=c1[nH]nc(C(O)CNc2ccc(OCc3ccccc3)cc2)[nH]1 (stereo not drawn) = 89.3
• CC(C)c1ccc(N2CC(Cc3n[nH]c(=O)o3)OC2=O)cc1 (stereo not drawn) = 89.3

---

assay-summary: Cytotoxicity against human L02 cells assessed as cell viability at 250 ug/ml incubated for 72 hrs by CCK8 assay relative to control
Assay type: toxicity, cell-based
test-settings: at 250 µg/mL, read-out: Activity
Overview of recorded viability at 72 h, 250 ug/ml for various compounds
property-label: viability at 72 h, 250 ug/ml

- O=C1OC(Cc2n[nH]c(=O)o2)CN1c1ccccc1OCc1ccccc1 (stereo not drawn): 96.5%
- O=c1[nH]nc(C(O)CNc2ccc(OCc3ccccc3)cc2)[nH]1 (stereo not drawn): 94.7%
- O=C1OC(c2n[nH]c(=O)o2)CN1c1cccc(OCc2ccccc2)c1 (stereo not drawn): 98.8%
- CC(C)c1ccc(N2CC(Cc3n[nH]c(=O)o3)OC2=O)cc1 (stereo not drawn): 96.2%
- CCc1cccc(N2CC(Cc3n[nH]c(=O)o3)OC2=O)c1 (stereo not drawn): 98.7%
- Cc1cc(C)cc(N2CC(Cc3n[nH]c(=O)o3)OC2=O)c1 (stereo not drawn): 98%
- O=c1[nH]nc(C(O)CNc2cccc(OCc3ccccc3)c2)[nH]1 (stereo not drawn): 95.4%
- O=C1OC(Cc2n[nH]c(=O)o2)CN1c1cccc(OCc2ccccc2)c1 (stereo not drawn): 94.9%

---

assayed-target: Urease subunit alpha/Urease subunit beta (Helicobacter pylori (strain ATCC 700392 / 26695) (Campylobacterpylori))
Sequence (P69996 whole entry): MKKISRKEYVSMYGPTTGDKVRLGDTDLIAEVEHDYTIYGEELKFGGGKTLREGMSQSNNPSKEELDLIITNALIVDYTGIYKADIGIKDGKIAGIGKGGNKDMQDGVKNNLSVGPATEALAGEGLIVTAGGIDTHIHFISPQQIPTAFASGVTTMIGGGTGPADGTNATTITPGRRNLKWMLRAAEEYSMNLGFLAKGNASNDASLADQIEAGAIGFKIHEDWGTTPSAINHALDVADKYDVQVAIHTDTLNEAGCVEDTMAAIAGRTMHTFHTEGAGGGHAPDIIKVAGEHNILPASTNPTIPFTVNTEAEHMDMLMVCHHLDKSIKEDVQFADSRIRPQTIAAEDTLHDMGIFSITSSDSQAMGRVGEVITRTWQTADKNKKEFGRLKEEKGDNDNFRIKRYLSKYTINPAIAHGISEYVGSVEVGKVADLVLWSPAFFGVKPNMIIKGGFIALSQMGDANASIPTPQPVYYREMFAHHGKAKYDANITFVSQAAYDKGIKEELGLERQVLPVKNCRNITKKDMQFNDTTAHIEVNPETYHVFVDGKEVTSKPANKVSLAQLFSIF
Sequence (P14916 whole entry, further chain): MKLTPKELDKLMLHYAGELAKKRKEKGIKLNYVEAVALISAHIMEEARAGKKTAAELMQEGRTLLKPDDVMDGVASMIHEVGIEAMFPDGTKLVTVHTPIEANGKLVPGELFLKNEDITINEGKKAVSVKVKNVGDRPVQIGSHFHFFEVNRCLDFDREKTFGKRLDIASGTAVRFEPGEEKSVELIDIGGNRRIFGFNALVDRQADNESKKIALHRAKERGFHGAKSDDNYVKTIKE
assay-summary: Inhibition of Helicobacter pylori urease using urea as substrate assessed as decrease in ammonia production incubated for 0.5 hrs by indole phenol method
IC50 vs 50 µM: less than gives 1; not less than gives -1.

• O=C1OC(Cc2n[nH]c(=O)o2)CN1c1cccc(OCc2ccccc2)c1 (stereo unspecified) = 1
• CCc1ccc(N2CC(Cc3n[nH]c(=O)o3)OC2=O)cc1 (stereo unspecified) = 1
• O=c1[nH]nc(C(O)CNc2ccccc2)[nH]1 (stereo unspecified) = -1
• CC(C)c1ccc(N2CC(Cc3n[nH]c(=O)o3)OC2=O)cc1 (stereo unspecified) = 1
• Cc1cccc(N2CC(Cc3n[nH]c(=O)o3)OC2=O)c1 (stereo unspecified) = 1
• CCOc1ccc(N2CC(c3n[nH]c(=O)o3)OC2=O)cc1 (stereo unspecified) = -1
